System: MCF7
Experiment: NCI tumour cell line growth inhibition, 48 h
Active and inactive are the calls of the source. No stated cut-off is given here; in the data, active = GI50 up to about 1.1 µM and inactive = higher.
The reply should be one of these categories: active, inactive

>  <COMPOUND>
COc1cc(C2C3=C(COC3=O)Oc3cc4c(cc32)OCO4)cc(OC)c1OC(C)=O (stereo unspecified)

>  <DISCRETE_LABEL>
active

$$$$
>  <COMPOUND>
C#CCC(O)c1ccc(OC)c(OCc2ccccc2)c1 (stereo unspecified)

>  <DISCRETE_LABEL>
inactive

$$$$
>  <COMPOUND>
N#C[C@@H](c1ccccn1)c1ncccc1[N+](=O)[O-]

>  <DISCRETE_LABEL>
inactive

$$$$
>  <COMPOUND>
COC(=O)c1cc(NC(=O)Cn2c3ccccc3c3ccccc32)cn1C

>  <DISCRETE_LABEL>
inactive

$$$$
>  <COMPOUND>
NCC(Cl)C(O)c1c[nH]c(N)n1 (stereo unspecified)

>  <DISCRETE_LABEL>
inactive

$$$$

Q) What classification did "O=C(O)CN1CCN2CCOCCN(CC1)CCN(CC(=O)O)CC2" end up with in this test?
A) inactive

* * *

System: T47D
Assay: NCI tumour cell line growth inhibition, 48 h
The source made the active and inactive calls. No stated cut-off is given here; in the data, active = GI50 up to about 1.1 µM and inactive = higher.
REPORTED_METRIC: GI50

See these solved cases before continuing.
>  <COMPOUND>
CC[C@H]1OC([C@H](O)C/C=C\C#C[Si](C)(C)C)C/C=C\C[C@H]1O[Si](C)(C)C(C)(C)C (stereo not given in full)

>  <REPORTED_METRIC>
GI50

>  <MEASURED_RESULT>
> 100 µM (inactive)

$$$$
>  <COMPOUND>
O=C(O)CCCc1ccc2c(c1)CC1(C2)Cc2ccc(CCCC(=O)O)cc2C1

>  <REPORTED_METRIC>
GI50

>  <MEASURED_RESULT>
> 100 µM (inactive)

$$$$
>  <COMPOUND>
O=C(CBr)NCCc1c[nH]c2ccccc12

>  <REPORTED_METRIC>
GI50

>  <MEASURED_RESULT>
1.74 µM (inactive)

$$$$
>  <COMPOUND>
OC1(c2ccc(Cl)cc2)c2ccccc2-c2nc3ccccc3n21 (stereo not given)

>  <REPORTED_METRIC>
GI50

>  <MEASURED_RESULT>
> 100 µM (inactive)

$$$$

Here is the next item to consider.
Q) I would be grateful if you could share the reported GI50 for O=C1c2c(O)cc(O)cc2OC(c2ccc(O)cc2O)C1O (stereo not given) .
A) > 100 µM (inactive)

* * *

Test system: CCRF-CEM
Experiment: NCI tumour cell line growth inhibition, 48 h
The source made the active and inactive calls. Cut-off read from the data, not from the text of the source: active = GI50 up to about 1.1 µM and inactive = higher.
Please answer using one outcome listed in true = active, false = inactive

Record excerpt, results attached:
>  <COMPOUND>
COC(=O)N[C@@H]1C[C@H]2CC[C@]1(O[Si](C(C)C)(C(C)C)C(C)C)C(=O)C2

>  <DISCRETE_LABEL>
false

$$$$
>  <COMPOUND>
O=C(/C(=C/c1ccc(Cl)cc1)c1ccccc1)c1ccccc1

>  <DISCRETE_LABEL>
false

$$$$
>  <COMPOUND>
C[C@]12CCC(N3CCCC3)CC1=CC[C@@H]1[C@@H]2CC[C@]2(C)C(O)[C@H](n3ccnc3)C[C@@H]12 (some centres not stated)

>  <DISCRETE_LABEL>
false

$$$$
>  <COMPOUND>
CC(=O)N1[C@H](C(=O)O)CS[C@H]1c1ccc(F)cc1

>  <DISCRETE_LABEL>
false

$$$$
>  <COMPOUND>
COc1ccc(-c2cs/c(=N\c3ccccc3)n2CCCN(C)C)cc1

>  <DISCRETE_LABEL>
false

$$$$
>  <COMPOUND>
O=C(O)CCCc1ccc2c(c1)CC1(C2)Cc2ccc(CCCC(=O)O)cc2C1

>  <DISCRETE_LABEL>
false

$$$$

Q) For CC[C@H]1OC([C@H](O)C/C=C\C#C[Si](C)(C)C)C/C=C\C[C@H]1O[Si](C)(C)C(C)(C)C (some centres not stated) , which call appears in the assay record?
A) false

Q) For this compound, state the assay outcome: "CCNC(=O)COc1ccc(Cl)c(C)c1"
A) false

Q) // outcome(item) with item = "N#Cc1ccc(Oc2cccc(Oc3ccccc3)c2)cc1C#N"
A) false

Q) What is the recorded call for this compound in the test? "COc1cc2cnc3c4cc(OC(C)C)c(OC)cc4ccc3c2cc1OC"
A) false

Q) What outcome does the record of this test show for "O=c1c2ccccc2[nH]c2c(Cl)cc(Cl)c(NC3CCCCC3)c12" ?
A) false

Value source: ChEMBL document CHEMBL1201862
